assay.comment: Stress testing (high temperature, high humidity, illumination)
Assay type: physicochemical
condition.details: High Humidity (92.5% RH), 14 days; read-out: Content
attribute.measured: remaining at 336 h (%)
Please respond with the number in % and leave the unit unwritten.

What measured remaining at 336 h goes with CC(=O)c1c(C)c2cnc(Nc3ccc4c(c3)OC[C@@H]3CN(C5CCN(C)CC5)CCN43)nc2n(C2CCCC2)c1=O [crystalline form A-I] ?
99.6

---

assay.comment: Long-term stability testing
Type: physicochemical
condition.details: solid, 60% rh storage; 25° C.±2° C./60%±5% RH, 12 months; read-out: Measured content
attribute.measured: remaining at 8640 h (%)
Please respond with the number in % and leave the unit unwritten.

What measured remaining at 8640 h goes with CC(=O)c1c(C)c2cnc(Nc3ccc4c(c3)OC[C@@H]3CN(C5CCN(C)CC5)CCN43)nc2n(C2CCCC2)c1=O ?
101
